Molecular target: Human UII receptor, 6D9 human rhabdomyosarcoma cells (Homo sapiens)
Construct: 6D9: isolated by dilution subcloning of RMS13 cells, ATCC® Number: CRL-2061
Sequence (Q9UKP6 1-389): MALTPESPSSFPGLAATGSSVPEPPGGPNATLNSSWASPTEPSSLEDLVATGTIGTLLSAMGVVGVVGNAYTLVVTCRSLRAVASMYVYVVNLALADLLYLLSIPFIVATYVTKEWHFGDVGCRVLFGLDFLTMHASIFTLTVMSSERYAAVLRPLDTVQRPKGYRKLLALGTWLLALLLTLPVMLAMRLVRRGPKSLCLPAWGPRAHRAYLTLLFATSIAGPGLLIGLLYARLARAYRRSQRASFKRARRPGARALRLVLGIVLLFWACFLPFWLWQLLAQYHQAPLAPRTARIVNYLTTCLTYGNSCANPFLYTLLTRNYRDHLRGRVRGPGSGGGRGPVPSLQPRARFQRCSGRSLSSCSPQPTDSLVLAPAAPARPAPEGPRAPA
Assay: Human UII Calcium Mobilization Assay
Details: average value, FLIPR TETRA, read-out: Human UII Ca^+ Mobilization Average IC50
QUANTITY: IC50 (nM)

Some solved entries appear below for comparison.
COc1ccc(C(CCCNS(=O)(=O)c2c(C)nn(C)c2Cl)N2C(=O)c3cccc(N4CCN([C@H](C)c5ccccc5)CC4)c3C2=O)cc1OC (stereo partly drawn) ... 300
COc1ccc([C@@H](CCCNS(=O)(=O)c2c(C)noc2C)N2C(=O)c3cccc(N4CCN([C@H](C)c5ccccc5)CC4)c3C2=O)cc1OC ... 290

P: COc1ccc([C@@H](CCCN(C)S(=O)(=O)O)N2C(=O)c3cccc(N4CCN([C@H](C)c5ccccc5)CC4)c3C2=O)cc1OC
Q: COc1ccc([C@@H](CCCNS(=O)(=O)c2cn(C)nc2C)N2C(=O)c3cccc(N4CCN([C@H](C)c5ccccc5)CC4)c3C2=O)cc1OC
Among P and Q , whose measured IC50 is the smaller figure? Mark your answer with the label of the selected entry.
Q

* * *

molecular target: endogenous human UII receptor (Homo sapiens, UniProt Q9UKP6); experiment: Human Radioligand Binding Assay ((^125I)-U-II binding to human skeletal muscle myoblasts)
QUANTITY: Ki (nM)

CCn1cc(S(=O)(=O)NCCC[C@H](c2ccc(OC)c(OC)c2)N2C(=O)c3cccc(N4CCN([C@H](C)c5ccccc5)CC4)c3C2=O)cn1 ... 68

P: COc1ccc([C@@H](CCCNC(=O)C2CCOC2)N2C(=O)c3cccc(N4CCN([C@H](C)c5ccccc5)CC4)c3C2=O)cc1OC (stereo partly drawn)
Q: COc1ccc([C@@H](CCCNC(=O)c2ccoc2)N2C(=O)c3cccc(N4CCN([C@H](C)c5ccccc5)CC4)c3C2=O)cc1OC
For P and Q , which recorded Ki is lower? State the label of the item chosen.
Q
(Q: 37 nM, P: 66 nM)

* * *

biological target: rat GPR14 (U-II receptor) (Rattus norvegicus); construct: expressed in transfected cells; assay: Rat UII Calcium Mobilization FLIPR Assay; assay type: cell-based; details: average value for the compound tested; read-out: Rat UII FLIPR Average IC50
Sequence (P49684 whole entry): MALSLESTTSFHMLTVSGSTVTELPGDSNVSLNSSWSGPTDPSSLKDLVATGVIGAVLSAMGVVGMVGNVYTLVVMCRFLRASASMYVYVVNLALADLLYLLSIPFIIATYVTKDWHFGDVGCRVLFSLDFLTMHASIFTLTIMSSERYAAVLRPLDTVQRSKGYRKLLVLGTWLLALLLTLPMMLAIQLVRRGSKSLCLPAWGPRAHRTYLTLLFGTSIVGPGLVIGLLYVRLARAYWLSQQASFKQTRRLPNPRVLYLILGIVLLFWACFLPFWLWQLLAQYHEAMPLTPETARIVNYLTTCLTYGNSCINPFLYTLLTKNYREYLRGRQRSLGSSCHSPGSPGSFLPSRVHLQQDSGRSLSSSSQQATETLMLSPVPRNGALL
pIC50: −log10 of the molar value.
QUANTITY: pIC50

A: CCOCCC[C@H](c1ccc(OC)c(OC)c1)N1C(=O)c2cccc(N3CCN(CC)CC3)c2C1=O
B: COc1ccc(C(CCCNC(=O)c2cccs2)N2C(=O)c3cccc(N4CCN([C@H](C)c5ccccc5)CC4)c3C2=O)cc1OC (some centres unmarked)
C: COc1ccc([C@@H](CCCNC(=O)c2ccoc2)N2C(=O)c3cccc(N4CCN([C@H](C)c5ccccc5)CC4)c3C2=O)cc1OC
Sort the list above on pIC50 in ascending fashion. Answer by listing the labels in the order asked for.
A, B, C
(A: 6.70, B: 7.28, C: 7.89)
